Parameter: GI50. Scope: all listed entries.
Test system: M14
Test: NCI tumour cell line growth inhibition, 48 h
Calls of active or inactive are those of the source. Cut-off read from the data, not from the text of the source: active = GI50 up to about 1.1 µM and inactive = higher.

Previously resolved entries follow.
- Molecule: "CC(=O)NNc1nc(C)c(C(/C=C/c2ccc(Cl)cc2)=N/NC(=O)C[N+](C)(C)C)s1"
  GI50: "> 100 µM (inactive)"
- Molecule: "COc1ccc(N2C(=O)C3c4[nH]c5cc(Cl)ccc5c4C4CCC(C(C)(C)C)CC4C3C2=O)cc1 (stereo unspecified)"
  GI50: "> 100 µM (inactive)"
- Molecule: "COC(=O)C12C(=O)CC3CCC1C32C(=O)OC (stereo unspecified)"
  GI50: "> 100 µM (inactive)"
- Molecule: "CN(C)CC1(C)CC/C(=C\\c2ccc3c(c2)OCO3)C1=O (stereo unspecified)"
  GI50: "> 100 µM (inactive)"
- Molecule: "CCN(C(C)=N)c1ccccc1"
  GI50: "> 100 µM (inactive)"

Using the record for O=[N+]([O-])c1ccc(C2N3CCCCC3[C@@H]3c4[nH]c5ccccc5c4CCN23)cc1 (stereo partly specified) , report its GI50. 16.1 µM (inactive)

---

Tested on: HL-60
Assay: NCI tumour cell line growth inhibition, 48 h
Active and inactive are the calls of the source. Cut-off read from the data, not from the text of the source: active = GI50 up to about 1.1 µM and inactive = higher.
I would appreciate it if you answered using one of these outcomes: 1 (active), -1 (inactive)

For orientation, consider the following solved cases.
- Compound: "COC1(OC)c2ccccc2C2(O)c3ccccc3C(=O)C12 (configuration not stated)"
  Tested On: "HL-60"
  Label: -1
- Compound: "Cc1ccc(Cl)cc1/N=N/C(=O)NNc1cc(Cl)ccc1C"
  Tested On: "HL-60"
  Label: -1
- Compound: "[O-][S+](Nc1ccccc1)c1ccc(-c2ccccc2)cc1 (configuration not stated)"
  Tested On: "HL-60"
  Label: -1

Lab log entry: "COc1cc(C(=O)C/C(CCC(=O)Nc2ccccc2[N+](=O)[O-])=N\NC(N)=O)ccc1O" — outcome as called in the assay? -1

# repeat for "CC(=O)NNc1nc(C)c(C(=O)NNC(=O)C(=O)Nc2ccc(Cl)c([N+](=O)[O-])c2)s1" -1

Then "COc1ccc2c(c1)CCN=C2Cc1ccccc1CCCl" ? -1

And then "O=C/C=C/c1ccco1" , what is it? -1

How about C#CCCCC(=O)N(C(=O)C[S+]([O-])CC)c1ccccc1 (configuration not stated) ? -1

Quick one: S=C=NCc1ccccc1 [BENZYL ISOTHIOCYANATE] -1

Same thing, different compound: "O=C(Nc1ccccc1)Oc1ccc(C(=S)Nc2ccc(Br)cc2)cc1" -1

What about CC1C(=O)C(C)C(c2ccccc2)N(N=O)C1c1ccccc1 (configuration not stated) ? -1

For "O=C(/C=C/c1ccc(Cl)c(Cl)c1)Oc1ccc(/C=C2\CCCCC2=O)cc1" then? -1

Moving on to "CC(=O)N(C)c1ccc2c(ccc[n+]2[O-])c1[N+](=O)[O-]" -1

What about this compound? "CCCc1c(OC)c(=O)c2c(OC)cc(OC)c3c4c(OC)cc(OC)c5c(=O)c(OC)c(CCC)c(c1c23)c54" -1

---

System: SK-MEL-28
Experiment: NCI tumour cell line growth inhibition, 48 h
The source made the active and inactive calls. Rule as the data show it: active = GI50 up to about 1.1 µM and inactive = higher.
Quantity: GI50

- Compound: "CNC(C)(C)Cc1ccc(Cl)cc1"
  Tested On: "SK-MEL-28"
  Result: "> 100 µM (inactive)"
- Compound: "CCC1OC2C(CC=C(C)C)=C3OC(C)(O)C(C)(CC)C(=O)C3=C3OC(=O)C=C1C32 (centres undefined)"
  Tested On: "SK-MEL-28"
  Result: "27.6 µM (inactive)"
- Compound: "CCOC(=O)CCC(NC(=O)Cc1ccc(Nc2nc3ccccc3nc2-c2cccs2)cc1)C(=O)OCC (centres undefined)"
  Tested On: "SK-MEL-28"
  Result: "> 100 µM (inactive)"
- Compound: "Cc1ccc(/N=N/c2c(C)nn(-c3ccccc3)c2-c2ccccc2)c(Br)c1"
  Tested On: "SK-MEL-28"
  Result: "> 100 µM (inactive)"
- Compound: "CC1CC[C@@]2(OC1)OC1C[C@H]3[C@@H]4CC=C5CC(OC6OC(CO)C(OC7OC(CO)C(O)C(OC8OCC(O)C(O)C8O)C7OC7OC(CO)C(O)C(O)C7O)C(O)C6O)CCC5(C)[C@H]4CCC3(C)C1[C@@H]2C (some centres undefined)"
  Tested On: "SK-MEL-28"
  Result: "12.3 µM (inactive)"

Which GI50 value belongs to "Nc1nc(N)c(-c2ccccc2)c(C(=O)Nc2nccs2)n1" ? > 100 µM (inactive)

What do you get for "NS(=O)(=O)c1ccc(/N=N/c2ncccc2O)cc1" ? > 100 µM (inactive)

Now the same for NC(Cc1c[nH]c2ccccc12)P(=O)(O)O (centres undefined) > 100 µM (inactive)

Check COC(=O)CCC(=O)c1ccc2c(c1)CC1(C2)Cc2ccc3c(c2C1)CCCC3=O (centres undefined) too. 25.5 µM (inactive)

// data source = ChEMBL document CHEMBL1201862
